Tested on: Staphylococcus aureus
Experiment: Antibacterial activity against methicillin-resistant Staphylococcus aureus assessed as growth inhibition at 30 uM measured every 2 mins for 16 to 20 hrs by spectramax 96-well plate reader analysis
Type: functional
Details: read-out: GI
So basically: inhibition of growth at 30 µM at 60% or higher? That is Criterion met. Lower than 60%? That is Criterion not met.

Worked cases, answers included:
> print(dat)
                                   compound    experimental.target        label.value
1  CCC(C(=O)NS(C)(=O)=O)N1C(=O)/C(=C\c2ccc(-c3ccc(Cl)c(Cl)c3)o2)NC1=S (stereo not given)  Staphylococcus aureus  Criterion not met
2  COc1ccc(-c2ccc(/C=C3/NC(=S)N(C(Cc4ccccc4)C(=O)O)C3=O)o2)cc1Cl (stereo not given)  Staphylococcus aureus      Criterion met
3  COc1ccc(-c2ccc(/C=C3/NC(=S)N(C(Cc4ccccc4)C(=O)O)C3=O)s2)cc1 (stereo not given)  Staphylococcus aureus  Criterion not met
4  N#CNC(=O)C(Cc1ccccc1)N1C(=O)/C(=C\c2ccc(-c3ccc(Cl)c(Cl)c3)o2)NC1=S (stereo not given)  Staphylococcus aureus      Criterion met
5  O=C(O)C(Cc1ccccc1)N1C(=O)/C(=C\c2ccc(-c3ccc(OC(F)(F)F)cc3)o2)NC1=S (stereo not given)  Staphylococcus aureus      Criterion met

Given the entry O=C(O)C(Cc1ccccc1)N1C(=O)/C(=C\c2ccc(-c3ccc(F)cc3)s2)NC1=S (stereo not given) , answer whether its inhibition of growth at 30 µM meets or surpasses 60%. Criterion not met

And the next one, O=C(O)C(Cc1ccccc1)N1C(=O)/C(=C\c2ccc(-c3ccc(Cl)cc3)o2)NC1=S (stereo not given) ? Criterion met

And the next one, O=C(O)C(Cc1ccccc1)N1C(=O)/C(=C\c2ccc(-c3ccc(Cl)c(Cl)c3)o2)NC1=S (stereo not given) ? Criterion met

And the next one, CCC(C(=O)O)N1C(=O)/C(=C\c2ccc(-c3ccc(Cl)c(Cl)c3)o2)NC1=S (stereo not given) ? Criterion met

* * *

Tested on: Bacillus anthracis
Experiment: Antibacterial activity against Bacillus anthracis Sterne assessed as growth inhibition at 30 uM measured every 2 mins for 16 to 20 hrs by spectramax 96-well plate reader analysis
Format: functional
Settings: read-out: GI
QUANTITY_KIND: inhibition of growth at 30 µM

Previously resolved entries follow.
> print(dat)
                                   compound  observed.value
1  O=C1Nc2ccccc2/C1=C1/SC(=S)N(C(Cc2ccccc2)C(=O)O)C1=O (stereo not drawn)           99.7%
2  O=C(O)C(Cc1ccccc1)N1C(=O)/C(=C\c2ccc(-c3ccc(Cl)cc3)o2)NC1=S (stereo not drawn)            100%

Requested read-out: inhibition of growth at 30 µM. Entry: O=C(O)C(Cc1ccccc1)N1C(=O)/C(=C\c2ccc(-c3cc(Cl)cc(Cl)c3)o2)NC1=S (stereo not drawn) 100%

* * *

Tested on: Staphylococcus aureus
Assay: Antibacterial activity against methicillin-resistant Staphylococcus aureus assessed as growth inhibition at 3 uM measured every 2 mins for 16 to 20 hrs by spectramax 96-well plate reader analysis
Assay type: functional
Conditions: read-out: GI
QUANTITY_KIND: inhibition of growth at 3 µM (%)
Dear colleague, please return just the value in %, with no unit written.

Previously resolved entries follow.
> print(dat)
                                   compound  u  observed.value
1  O=C(O)C(Cc1ccccc1)N1C(=O)/C(=C\c2ccc(-c3ccc(Cl)cc3)o2)NC1=S (stereo not drawn)  %              10
2  O=C(O)C(Cc1ccccc1)N1C(=O)/C(=C\c2ccc(-c3ccccc3)o2)NC1=S (stereo not drawn)  %               0
3  O=C(O)C(Cc1ccccc1)N1C(=O)/C(=C\c2ccc(-c3ccc(Cl)c(Cl)c3)o2)NC1=S (stereo not drawn)  %              20
4  O=C(O)C(Cc1ccccc1)N1C(=O)/C(=C\c2ccc(-c3ccc(I)cc3)o2)NC1=S (stereo not drawn)  %               0
5  CCC(C(=O)NS(C)(=O)=O)N1C(=O)/C(=C\c2ccc(-c3ccc(Cl)c(Cl)c3)o2)NC1=S (stereo not drawn)  %               0
6  NC(=O)C(Cc1ccccc1)N1C(=O)/C(=C\c2ccc(-c3ccc(Cl)c(Cl)c3)o2)NC1=S (stereo not drawn)  %               0
7  O=C(O)C(Cc1ccccc1)N1C(=O)/C(=C\c2ccc(-c3ccc(Br)cc3)s2)NC1=S (stereo not drawn)  %              20
8  O=C(O)C(Cc1ccccc1)N1C(=O)/C(=C\c2ccc(-c3ccc(OC(F)(F)F)cc3)o2)NC1=S (stereo not drawn)  %               0

Proceeding to the next compound to report its inhibition of growth at 3 µM.
Requested read-out: inhibition of growth at 3 µM. Entry: O=C(O)C(Cc1ccccc1)N1C(=O)/C(=C\c2ccc(-c3ccc(Cl)c(Cl)c3)s2)NC1=S (stereo not drawn) 10

* * *

Tested on: Staphylococcus aureus
Assay: Antibacterial activity against methicillin-resistant Staphylococcus aureus assessed as growth inhibition at 3 uM measured every 2 mins for 16 to 20 hrs by spectramax 96-well plate reader analysis
Type: functional
Conditions: read-out: GI
QUANTITY_KIND: inhibition of growth at 3 µM (%)
Dear colleague, please return just the value in %, with no unit written.

> print(dat)
                                   molecule  u  observed.value
1  N#CNC(=O)C(Cc1ccccc1)N1C(=O)/C(=C\c2ccc(-c3ccc(Cl)c(Cl)c3)o2)NC1=S (centres undefined)  %               0
2  O=C(O)C(Cc1ccccc1)N1C(=O)/C(=C\c2ccc(-c3cc(Cl)cc(Cl)c3)o2)NC1=S (centres undefined)  %               0

Requested read-out: inhibition of growth at 3 µM. Entry: COc1ccc(-c2ccc(/C=C3/NC(=S)N(C(Cc4ccccc4)C(=O)O)C3=O)s2)cc1 (centres undefined) 0

And the next one, O=C(O)C(Cc1ccccc1)N1C(=O)/C(=C\c2ccc(-c3ccc(Br)cc3)o2)NC1=S (centres undefined) ? 10
